assay: binders of probe aHhip on microarray, primary screen, stem cell growth factor project, biochemical, small-molecule microarray, fluorescence 635/667 (AID 1087); details: higher = more signal;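 also: score merges spot fluorescence at 667nm with spot signal to noise ratio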
Quick reference for composite z-score among some compounds
Measure: composite z-score

substance_smiles=C[N+](C)(C)CCCCCCNC(=O)[C@H]1C[C@H]2C(=O)N3CCC[C@H]3C(=O)N2[C@H]1c1cccc(OCCO)c1 measured=0.154
substance_smiles=CC(C)N1C(=O)c2ccccc2[C@](C)(C(=O)O)[C@@H]1c1ccc(CO)cc1 measured=-0.0708
substance_smiles=CN(C)C(=O)[C@]1(Cc2ccccc2N=[N+]=[N-])N=C(c2ccc(OCCCO)cc2)O[C@@H]1c1ccccc1CN=[N+]=[N-] measured=-0.0994
substance_smiles=COC(=O)c1c(CC[C@@H](CO)NC(=O)N[C@@H](C)Cn2cc(C3(O)CCCC3)nn2)oc(C(C)=O)c1C(=O)OC measured=0.0002

====

test: basal CRE-LacZ reporter activity in PC12 – cell-based, unstimulated, primary screen (AID 1145); settings: no forskolin, luminescence, 4.5 h, higher = more signal, called active from +8 up or from −8 down
Label true when z-score is at or above 0.5; anything below gets false.

compound=O=C1C[C@@](C(=O)O)(c2ccc([N+](=O)[O-])cc2)[C@@H](c2ccc(CO)cc2)N1CC12CC3CC(CC(C3)C1)C2 answer_label=false
compound=COCC(=C=CC[C@@H](O)c1ccccc1OCCO)C[C@@H](O)COCc1ccccc1 answer_label=true
compound="COC(=O)c1ccc(OC)c(/C=C\\CC(CCc2ccccc2)OC(=O)c2ccncc2)c1 (stereo unspecified)" answer_label=true
compound="CC1CC/C=C\\[C@H]2OC34C=CCN(Cc5ccccc5)C(=O)[C@H]3N(CCO)C(=O)[C@@H]4C2C(=O)O1 (stereo partly specified)" answer_label=false
compound=O=C(CS)NCCCCCNC(=O)[C@@H]1C[C@@H]2C(=O)N3CCC[C@H]3C(=O)N2[C@@H]1c1ccc(O)cc1 answer_label=false
compound=COC(=O)[C@]1(Cc2ccccc2CN=[N+]=[N-])N=C(c2ccc(OCCCO)cc2)O[C@@H]1c1ccccc1 answer_label=true
compound="O=C1NC(=O)C2C1C=CC(C(O)c1ccc(-c3ccccc3)s1)N2Nc1ccccn1 (stereo unspecified)" answer_label=false
compound=CO[C@H]1O[C@H](CO)[C@@H](OC(=O)Nc2cccc(F)c2)[C@H](OC(=O)Nc2ccc3c(c2)OCO3)[C@H]1OC(=O)Nc1ccc2c(c1)OCO2 answer_label=false
compound=NC(=O)[C@H]1[C@@H]2C(=O)O[C@@H](c3ccccc3)[C@@H](c3ccccc3)N2[C@@H](c2ccc(O)cc2)[C@]12C(=O)Nc1ccc(C#CC3(O)CCCCCC3)cc12 answer_label=false
compound=CCOC(=O)C[C@H]1[C@H](OC(=O)c2ccc(C(=O)c3ccccc3)cc2)[C@@H](NC(=O)C2CCCCC2)c2cc(OCCCO)ccc2N1C(=O)Cc1ccc(OC)cc1 answer_label=true
compound=COc1ccc(CCNC(=O)[C@@H]2c3ccccc3C(=O)N(Cc3ccccc3C(F)(F)F)[C@H]2c2ccc(CO)cc2)cc1 answer_label=false
compound=COCCCNC(=O)[C@@H]1c2ccccc2C(=O)N(c2ccc(C)cn2)[C@H]1c1ccc(CO)cc1 answer_label=false
compound=CN(C)CCCCCCNC(=O)[C@@H]1C[C@@H]2C(=O)NCC(=O)N2[C@@H]1c1ccc(O)cc1 answer_label=false
compound=O=C1O[C@H](c2ccccc2)[C@H](c2ccccc2)N2[C@H]1[C@@H](C(=O)NC[C@H](O)c1ccccc1)[C@]1(C(=O)Nc3ccccc31)[C@H]2c1ccccc1OCCO answer_label=false
compound=COc1ccccc1CN1C(=O)c2ccccc2[C@@]2(Cc3ccccc3N(C3CC3)C2=O)[C@@H]1c1ccc(CO)cc1 answer_label=true
compound=CCC[C@@H]1C[C@@]1(CCC)[C@@H](NC(=O)c1cccs1)c1ccc(Cl)cc1 answer_label=true
compound=Cc1ccc(N2C(=O)c3ccccc3[C@](C)(C(=O)NC(C)C)[C@@H]2c2ccc(CO)cc2)nc1 answer_label=false
compound=COCCCNC(=O)[C@@H]1c2ccccc2C(=O)N(Cc2cc(F)cc(C(F)(F)F)c2)[C@H]1c1ccc(CO)cc1 answer_label=true
compound="N#Cc1ccc(NN2C(C(O)c3ccccc3)C=CC3C(=O)N(c4ccccc4)C(=O)C32)cc1 (stereo unspecified)" answer_label=false
compound=[N-]=[N+]=NCc1ccccc1[C@H]1OC(c2ccc(OCCCO)cc2)=N[C@@]1(Cc1ccccc1)C(N)=O answer_label=false
compound=CC(C)NC(=O)[C@@H]1c2ccccc2C(=O)N(Cc2cc(C(F)(F)F)cc(C(F)(F)F)c2)[C@H]1c1ccc(CO)cc1 answer_label=false
compound="COc1cc(C(O)C2C=CC3C(=O)NC(=O)C3N2Nc2ccc(Cl)cc2Cl)cc(OC)c1OC (stereo unspecified)" answer_label=true
compound=C[C@H]1ON(c2ccccc2)[C@@H](c2ccccc2)[C@@H]1C(=O)N1C(=O)OC[C@@H]1c1ccccc1 answer_label=false
compound=CCCC=C(CCC)[C@@H](NS(=O)(=O)c1ccccc1)c1ccc(C(F)(F)F)cc1 answer_label=false
compound=C=C(CCCC)/C(=C/C[C@H](OC(=O)c1ccncc1)c1ccc(CO)o1)c1cc(C(=O)OC)ccc1OC answer_label=false
compound=COCCCNC(=O)[C@]1(CCS(=O)(=O)c2ccccc2)N=C(c2ccc(OCCCO)cc2)O[C@@H]1c1ccccc1 answer_label=true
compound="CC(C)C(CO)N1C(=O)[C@@H]2[C@H]3C(=O)OCC=C[C@H]3OC23C=CCN(Cn2nnc4ccccc42)C(=O)[C@@H]13 (stereo partly specified)" answer_label=false
compound="O=C1OCC=C[C@H]2OC34C=CCN(CCN5CCOCC5)C(=O)[C@H]3N(CCCCCO)C(=O)[C@@H]4[C@@H]12 (stereo partly specified)" answer_label=true
compound=Cc1ccc(-c2cccc(=O)o2)cc1 answer_label=false
compound=CC(=O)NCCCC[C@@H]1NC(=O)[C@@H]2C[C@H](C(=O)NCCCC[N+](C)(C)C)[C@H](c3cccc(OCCO)c3)N2C1=O answer_label=false

====

test: plasmodial surface anion channel blockers, osmotic lysis – cell-based, P. falciparum Indochina, OD700, 18 h, primary screen (AID 1157); details: P. falciparum Indochina infected erythrocytes, osmotic lysis OD700, 18 h; higher = more signal, called active from +8 up or from −8 down
Calls of active or inactive are those of the source.
Measure: z-score

compound=Cc1ccc(N2C(=O)c3ccccc3[C@](C)(C(=O)NC(C)C)[C@@H]2c2ccc(CO)cc2)nc1 measure=z-score measured="0.232 (inactive)"
compound=COC(=O)[C@@]1(Cc2ccc(OC)cc2)[C@H]2c3cc(C(=O)N(C)C)n(Cc4cc(F)c(F)c(F)c4)c3C[C@H]2CN1C(=O)c1ccccc1 measure=z-score measured="-1.37 (inactive)"
compound=CC1=C2[C@@H](CCc3ccccc3)OB(O)C[C@@H]2[C@@H]2C(=O)C=CC(=O)[C@@H]2C1 measure=z-score measured="0.182 (inactive)"
compound=O=C(NCc1ccccc1)[C@]1(Cc2ccccc2)N=C(c2ccc(OCCCO)cc2)O[C@@H]1c1ccccc1 measure=z-score measured="2.53 (inactive)"
compound=C#CCNS(=O)(=O)N(C)C measure=z-score measured="0.0625 (inactive)"
compound=[N-]=[N+]=Nc1ccccc1[C@@H]1OC(c2ccc(OCCCO)cc2)=N[C@]1(CCS(=O)(=O)c1ccccc1)C(=O)NCc1ccccc1 measure=z-score measured="4.33 (inactive)"
compound=C#CCOC(=O)N[C@H](C=CCCCC)c1ccccc1 measure=z-score measured="0.715 (inactive)"
compound="C=CCC(OC(C)=O)[C@@H]1[C@@H](N(Cc2ccc(-c3ccccc3)cc2)C(=O)c2cccc3ccccc23)c2cc(OCCCO)ccc2N1C(=O)c1ccc2ccccc2n1 (stereo partly drawn)" measure=z-score measured="0.357 (inactive)"

====

assay: ATP-based viability of Huh7 replicon cells – cell-based, CellTiter-Glo luminescence, basal, 48 h, cytotoxicity control for HCV replication inhibitor project, primary screen (AID 1143); settings: higher = more signal, called active from +8 up or from −8 down;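 also: Huh7 hepatoma cells carrying a hepatitis C replication reporter with no stimulus; test concentration not given here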
Label label 1 when z-score is at or above -2; anything below gets label 0.

compound="CCCCCCCCCCC(O)C1C=CC2C(=O)NC(=O)C2N1Nc1ccccn1 (stereo unspecified)" answer_label="label 0"
compound=CCOC(=O)C[C@H]1[C@H](OC(=O)c2ccc(C(=O)c3ccccc3)cc2)[C@@H](NC(=O)C2CCCCC2)c2cc(OCCCO)ccc2N1C(=O)Cc1ccc(OC)cc1 answer_label="label 1"
compound=COc1ccc([Si](C)(C)[C@@H]2[C@@H](CC(=O)N(CCO)Cc3ccccc3)O[C@]3(C(=O)N(Cc4ccc(N5CCOC5=O)cc4)c4ccccc43)[C@H]2C)cc1 answer_label="label 0"
compound=COC(=O)[C@@]1(Cc2ccccc2)[C@H]2c3cc(C(=O)N(C)C)n(Cc4ccccn4)c3C[C@H]2CN1C(=O)c1ccccc1 answer_label="label 1"
compound=CO[C@H]1O[C@H](CO)[C@@H](OC(=O)c2ccc(Br)cc2)[C@@H]2OC(=O)[C@H](Cc3cccc(Br)c3)C/C=C/C[C@@H](Cc3cccc(Br)c3)C(=O)O[C@@H]12 answer_label="label 1"
compound=C=CCOC(=O)[C@H]1[C@@H]2C(=O)O[C@@H](c3ccccc3)[C@@H](c3ccccc3)N2[C@@H](c2ccc(OCCOC(=O)[C@H]3C[C@H]4C(=O)N[C@@H](CCCCN(C)C)C(=O)N4[C@H]3c3ccc(O)cc3)cc2)[C@]12C(=O)Nc1ccccc12 answer_label="label 1"
compound=COC(=O)[C@@]1(Cc2ccc(OC)cc2)[C@H]2c3cc(C(=O)N4CCCC4)n(CCc4ccc(O)c(OC)c4)c3C[C@H]2CN1C(=O)c1ccccc1 answer_label="label 1"
compound=O=C1O[C@H](c2ccccc2)[C@H](c2ccccc2)N2[C@H]1[C@@H](C(=O)N1CCN(c3ncccn3)CC1)[C@]1(C(=O)Nc3ccc(C#CCCO)cc31)[C@H]2c1ccccc1OCCO answer_label="label 1"
compound=O=C1O[C@H](c2ccccc2)[C@H](c2ccccc2)N2[C@H]1[C@@H](C(=O)NC[C@H](O)c1ccccc1)[C@]1(C(=O)Nc3ccccc31)[C@H]2c1ccccc1OCCO answer_label="label 0"
compound="C[C@]12C(=O)N(CCCO)[C@@H]3C(=O)N(c4ccc(Cl)cc4)CC=CC31O[C@@H]1/C=C\\CCCOC(=O)C12 (stereo partly specified)" answer_label="label 1"
